- Test system: KY821 (Acute Myeloid Leukemia);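 also: after 72 h of two-drug dosing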
- Experiment: Bliss excess, mean over the matrix (fraction); higher = more synergy
Decide by Bliss excess: equal to or exceeding 0.003 means class 1, less means class 0.

Molecule | Category label
NC1(C(=O)N[C@@H](CCO)c2ccc(Cl)cc2)CCN(c2ncnc3[nH]ccc23)CC1 [Capivasertib] + CC(C)n1c(=O)n(C)c2cnc3cc(F)c(-c4ccc(OCCCN5CCCCC5)nc4)cc3c21 [AZD1390] (first compound max 10 µM, 7x7, partner max 0.3 µM) | class 0
CN(CCO)CC[C@H](CSc1ccccc1)Nc1ccc(S(=O)(=O)NC(=O)c2ccc(N3CCC([C@@H](O)c4ccccc4-c4ccc(Cl)cc4)CC3)cc2)cc1S(=O)(=O)C(F)(F)F [AZD4320] + C=CCn1c(=O)c2cnc(Nc3ccc(N4CCN(C)CC4)cc3)nc2n1-c1cccc(C(C)(C)O)n1 [AZD1775] (first compound max 1 µM, partner max 1 µM) | class 0
CN(C)CCCOc1ccc(-c2ccc3ncc4c(c3c2)n(C2CCOCC2)c(=O)n4C)cn1 [AZD0156] + O=C(c1cc(Cc2n[nH]c(=O)c3ccccc23)ccc1F)N1CCN(C(=O)C2CC2)CC1 [Olaparib] (first compound max 3 µM, partner max 3 µM) | class 1
COc1nnc2ccc(N3CCC(c4ccc(OCCN5CCN(C)C(=O)[C@H]5C)cc4)CC3)nn12 [AZD5153] + Cn1cnc2c(F)c(Nc3ccc(Br)cc3Cl)c(C(=O)NOCCO)cc21 [Selumetinib] (first compound max 1 µM, 7x7, partner max 10 µM) | class 0
Cc1c2c(nn1C)CSCc1cc(n(C)n1)CSc1cc(c3ccccc3c1)OCCCc1c(C(=O)O)n(C)c3c-2c(Cl)ccc13 [AZD5991] + CC1(C)CCC(CN2CCN(c3ccc(C(=O)NS(=O)(=O)c4ccc(NCC5CCOCC5)c([N+](=O)[O-])c4)c(Oc4cnc5[nH]ccc5c4)c3)CC2)=C(c2ccc(Cl)cc2)C1 [Venetoclax] (first compound max 1 µM, 7x7, partner max 1 µM) | class 1
CC1(C)CCC(CN2CCN(c3ccc(C(=O)NS(=O)(=O)c4ccc(NCC5CCOCC5)c([N+](=O)[O-])c4)c(Oc4cnc5[nH]ccc5c4)c3)CC2)=C(c2ccc(Cl)cc2)C1 [Venetoclax] + C[C@@H](Nc1cc(F)cc(F)c1)c1cc(C(=O)N(C)C)cc2c(=O)cc(N3CCOCC3)oc12 [AZD8186] (first compound max 1 µM, 7x7, partner max 3 µM) | class 1
